- target_entity: Bcl-xL, Q07817
- Sequence (Q07817 1-209): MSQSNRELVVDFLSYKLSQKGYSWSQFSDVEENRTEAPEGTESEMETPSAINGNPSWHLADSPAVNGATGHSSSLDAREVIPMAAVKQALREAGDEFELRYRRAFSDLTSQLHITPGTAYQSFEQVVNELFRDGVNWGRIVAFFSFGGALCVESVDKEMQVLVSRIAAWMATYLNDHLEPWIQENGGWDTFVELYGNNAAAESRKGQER
- protocol_description: peptide SPOT array, c-Myc-tagged receptor at 1 uM or 100 nM, anti-c-Myc-Cy3
So basically: SPOT signal as a fraction of Bim BH3's signal on the same receptor and array at 0.07 or higher? That is 1 (yes). Lower than 0.07? That is 0 (no).

See these solved cases before continuing.
>  <binder>
FYRRRDISNTLIMLADKHAKEIEEES [MTA3]

>  <class_assignment>
1 (yes)

$$$$
>  <binder>
MPYMEAVIHEIQRFGDVIPMSLARRV [CYP2A6]

>  <class_assignment>
1 (yes)

$$$$
>  <binder>
DHTDGVVACAAGLILDLCTAFGKDVL [KPNB1]

>  <class_assignment>
0 (no)

$$$$
>  <binder>
HPRKESQVRQLAWVLDGVWVSIRLDS [SPAG9]

>  <class_assignment>
0 (no)

$$$$
>  <binder>
PEDLQDVGWFDHKLSQQILKKEKEKK [TLR5]

>  <class_assignment>
0 (no)

$$$$

# input for lookup
Ask | Decide: is the reported value of SPOT signal as a fraction of Bim BH3's signal on the same receptor and array for LALMMQLARELKTLLRDLGMAVVVTN [RAD51L3] equal to or greater than 0.07?
Reply | 1 (yes)
